- TARGET: human CRTH2 receptor (Homo sapiens, UniProt Q9Y5Y4, V204A)
- Sequence (Q9Y5Y4 whole entry V204A): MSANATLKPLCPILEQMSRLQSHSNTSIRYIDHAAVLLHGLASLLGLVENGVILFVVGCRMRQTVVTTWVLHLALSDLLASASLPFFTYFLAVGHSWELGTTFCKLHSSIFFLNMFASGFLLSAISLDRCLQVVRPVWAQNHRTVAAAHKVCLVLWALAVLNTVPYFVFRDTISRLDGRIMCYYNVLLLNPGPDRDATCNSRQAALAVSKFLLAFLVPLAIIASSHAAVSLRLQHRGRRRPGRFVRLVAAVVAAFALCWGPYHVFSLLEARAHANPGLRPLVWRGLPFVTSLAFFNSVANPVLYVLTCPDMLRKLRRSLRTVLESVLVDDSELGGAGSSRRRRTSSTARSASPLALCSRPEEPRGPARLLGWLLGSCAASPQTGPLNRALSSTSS
- MEASUREMENT_PROTOCOL: CRTH2 receptor binding assay ([3H]PGD2 competition on whole transfected cells)
- RUN_CONDITIONS: competition binding with 0.1 nM [3H]PGD2, whole cells expressing CRTH2, 3 h at 4° C.
IC50 values by entry

Some compounds with recorded IC50:
TEST_SMILES	IC50
O=C(Nc1ccccc1C(=O)O)c1cccc(S(=O)(=O)NC2CCCCC2)c1	0.5 to 5 µM
Cc1c(S(=O)(=O)Nc2cccc(Oc3ccccc3)c2)csc1C(=O)Nc1ccccc1C(=O)O	0.5 to 5 µM
O=C(Nc1ccccc1C(=O)O)c1ccc(Br)c(S(=O)(=O)Nc2ccc(I)cc2)c1	< 0.5 µM
COc1ccc(OCC(=O)Nc2cccc(C(=O)Nc3ccccc3C(=O)O)c2)cc1	0.5 to 5 µM
COc1ccc(C(=O)Nc2cccc(C(=O)Nc3ccccc3C(=O)O)c2)cc1OC	0.5 to 5 µM
Cc1ccccc1NS(=O)(=O)c1cccc(C(=O)Nc2ccccc2C(=O)O)c1	0.5 to 5 µM
O=C(Nc1ccccc1C(=O)O)c1cccc(NS(=O)(=O)c2ccc(F)cc2)c1	0.5 to 5 µM
COc1ccc(NS(=O)(=O)c2cc(C(=O)Nc3ccccc3C(=O)O)ccc2C)cc1	0.5 to 5 µM
O=C(Nc1ccccc1C(=O)O)c1cccc(S(=O)(=O)N2CCCCC2)c1	0.5 to 5 µM
Cc1ccc(S(=O)(=O)Nc2cccc(C(=O)Nc3ccccc3C(=O)O)c2)cc1	0.5 to 5 µM

IN: Reported IC50 for `O=C(Nc1ccccc1C(=O)O)c1cc(S(=O)(=O)N2CCCCCC2)ccc1Cl` : what is it?
OUT: 0.5 to 5 µM

IN: Which IC50 is reported for this compound? `O=C(Nc1ccccc1C(=O)O)c1ccc(Br)c(S(=O)(=O)NCc2ccccc2)c1`
OUT: 0.5 to 5 µM

IN: Item `O=C(COCc1ccccc1)Nc1cccc(C(=O)Nc2ccccc2C(=O)O)c1` has what recorded IC50?
OUT: 0.5 to 5 µM

IN: If you can, please state the reported IC50 value of `O=C(COc1ccc(Cl)cc1Cl)Nc1cccc(C(=O)Nc2ccccc2C(=O)O)c1` .
OUT: < 0.5 µM

IN: Reported IC50 for `Cc1ccc(C(=O)Nc2ccccc2C(=O)O)cc1S(=O)(=O)N1CCCCC1` : what is it?
OUT: < 0.5 µM

IN: Please give the measured IC50 for this compound: `O=C(Nc1ccccc1C(=O)O)c1cccc(S(=O)(=O)Nc2ccccc2)c1`
OUT: 0.5 to 5 µM

IN: Find the recorded IC50 belonging to `O=C(Nc1ccccc1C(=O)O)c1cccc(NC(=O)c2ccco2)c1` and report it.
OUT: > 5 µM

IN: # input compound: `O=C(Cc1ccccc1)Nc1cccc(C(=O)Nc2ccccc2C(=O)O)c1` ; wanted: its IC50
OUT: 0.5 to 5 µM

IN: Using the record for `O=C(Nc1ccc(Cl)cc1C(=O)O)c1cccc(S(=O)(=O)Nc2ccc(F)cc2)c1` , report its IC50.
OUT: < 0.5 µM

IN: GET /values?readout=IC50&item= `Cc1c(S(=O)(=O)Nc2ccc(Br)cc2)csc1C(=O)Nc1ccc(Br)cc1C(=O)O`
OUT: < 0.5 µM

IN: I'd like to know its IC50. The compound in question is `O=C(Nc1ccccc1C(=O)O)c1cc(S(=O)(=O)Nc2ccc(Br)cc2)ccc1Cl`
OUT: 0.5 to 5 µM

IN: Any idea what its IC50 is? The compound is `O=C(Nc1ccccc1C(=O)O)c1cccc(NC(=O)c2cccs2)c1`
OUT: 0.5 to 5 µM

Data origin: patent US20090105218A1
